Values compiled from paper PMC12864922.

Each record here notes measured binding signal.
Target: TDP-43 (Homo sapiens, UniProt Q13148 1-414)
Sequence (Q13148 whole entry): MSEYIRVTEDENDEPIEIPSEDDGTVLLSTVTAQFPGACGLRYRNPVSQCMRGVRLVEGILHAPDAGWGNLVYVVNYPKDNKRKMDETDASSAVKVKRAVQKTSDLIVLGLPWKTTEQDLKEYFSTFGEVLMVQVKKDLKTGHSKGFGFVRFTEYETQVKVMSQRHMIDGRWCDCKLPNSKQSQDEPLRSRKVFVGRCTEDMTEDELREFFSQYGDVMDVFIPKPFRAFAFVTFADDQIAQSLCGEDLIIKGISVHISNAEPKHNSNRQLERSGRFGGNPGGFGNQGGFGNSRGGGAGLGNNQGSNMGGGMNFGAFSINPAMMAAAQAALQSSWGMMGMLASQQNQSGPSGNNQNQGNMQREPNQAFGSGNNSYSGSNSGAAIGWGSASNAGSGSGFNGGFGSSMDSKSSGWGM
Assay: RNA Bind-n-Seq with designed 260-mer pool; 25 mM Tris-HCl, 150 mM KCl, 3 mM MgCl2, BSA (printed 500 mg/mL), 20 units/mL SUPERase IN; pH not stated; 500 nM RNA pool, 1 h, 4 C; TDP-43 5, 50, 500 nM; high values mean tight binding
Settings: protein: recombinant; tags: SBP (GST cleaved off with PreScission; pGEX-GST-SBP)
Over roughly 9,900 sequences, “r (bound/input frequency ratio)” has its median near 0.7; the highest 2% begin near 6.5. What follows is part of a selection rich in the highest values, with near analogues and random picks from the rest.

Sample answers from the record:
- ENSMUSG00000090935.379|Synj2bp (ssRNA) RNA: GGGAGUUCUACAGUCCGACGAUCGCUUCGAUAUCCGCAUGCUAAGAUGCAGGGAUAUUGGUGAGGUGGGAGCUGUCCUGUUUAUGUAACAUCUAAGUUGGUUUUAGAGUACUGAGGAUAGUUGAACCAAGCCUAUUUUUUUUCCACUUUAACAAAAUAAUUUCCUUCUUUUCAGUAAAUUGGCCAGACUAUUAUUUUGACAUAAGAUUAUGAAGAGUUUUCCCGACAGUCUAGCAGUCACUUAACAGAUGUUGAUUGCACAUUAGUUUUGUCAGGACACCUUUAUAAAAAGAGAAAUGCACAUCUCUUGCGGUCGCACUAGUGUGGAAUUCUCGGGUGUCAAGG: 0.043 R (bound/input frequency ratio)
- ENSMUSG00000028439.183|Fam219a|6:10;12:28;30:47;57:64 (ssRNA) RNA: GGGAGUUCUACAGUCCGACGAUCGCUUCGAUAUCCGCAUGCUAUGUGCCACACCCACACACAUACACACACCCACACACACACACACACAUGUACCCGACACACACAUGAGCCUAUCUGUCCAGGGAACCAGAUUGGUGUCCGAGAUGAGGAAAUGGCUGUGGCCUGGGAAAUCAGUGAGAGGCCGCUUGGGAAUGAGAAUGCAGUGGACUGAAAGCACAGCCUGGCCAUCUGGAACCUGGGUUCUGGUCCCAGCCUCGGCAUUCUCCCUGAGCUCCUAAGCAAUUCCCAGGCUUCUCUAGGGCUCUUGCGGUCGCACUAGUGUGGAAUUCUCGGGUGUCAAGG: 2.29 R (bound/input frequency ratio)
- ENSMUSG00000028439.182|Fam219a|1:10;12:16;18:34;36:53;63:70 (ssRNA) RNA: GGGAGUUCUACAGUCCGACGAUCGCUUCGAUAUCCGCAUGCUAACACACACACCCACACCCACACACAUACACACACCCACACACACACACACACAUGUACCCGACACACACAUGAGCCUAUCUGUCCAGGGAACCAGAUUGGUGUCCGAGAUGAGGAAAUGGCUGUGGCCUGGGAAAUCAGUGAGAGGCCGCUUGGGAAUGAGAAUGCAGUGGACUGAAAGCACAGCCUGGCCAUCUGGAACCUGGGUUCUGGUCCCAGCCUCGGCAUUCUCCCUGAGCUCCUAAGCAAUUCCCAGGCUUCUCUCUUGCGGUCGCACUAGUGUGGAAUUCUCGGGUGUCAAGG: 3.29 R (bound/input frequency ratio)

// binding signal lookup, key: ENSMUSG00000043670.215|Diras1 (ssRNA) RNA: GGGAGUUCUACAGUCCGACGAUCGCUUCGAUAUCCGCAUGCUAGUGUCUGUCUUGGGAUGGGGUGUUCUUGCACCACUUUGUGUUCUUAGUGAGACCACAGUGUAAGUGGCCGUGUGUGUGUGUGGGGGGGGGCACCUAGACAUUGUGGUGUGUCUGUAUGGCUCUGUGUUUUCAGGGGUGGGUGACACAGGCCUGUCUGAUGAGCACCAGGUCUGUUCCAGGCUGUGGCAAGCUGGCUCCUGGCUCAGAAGUGACAAAGCUGCAGUACAGAGGCCUCAGUGUGAGGUCAUCACCUCACAGUGCUCUUGCGGUCGCACUAGUGUGGAAUUCUCGGGUGUCAAGG
3.25 R (bound/input frequency ratio)
